Assayed System: HLA-B*08:02
Protocol: IEDB peptide-MHC binding, purified MHC/direct/fluorescence; filed as Kd, often an IC50 or EC50 that approximates it; bounds were set here for any values at or beyond the usual limits of such assays
Condition Context: source organism: Mycobacterium tuberculosis str. Haarlem
pKd: −log10 of the molar value.
Attribute Measured: pKd

Answer briefly: pKd recorded on HLA-B*08:02 for RPAGARAAF
≤ 4.70

====

Assayed System: HLA-A*02:01
Protocol: IEDB peptide-MHC binding, purified MHC/competitive/radioactivity; filed as Kd, often an IC50 or EC50 that approximates it; bounds were set here for any values at or beyond the usual limits of such assays
Condition Context: source organism: Dengue virus 2 Jamaica/1409/1983
Attribute Measured: pKd
Worth noting: pKd values are minus log10 of concentrations stated in mol/L.

Answer briefly: pKd recorded on HLA-A*02:01 for TMTDDIGMGV
7.67

Answer briefly: pKd recorded on HLA-A*02:01 for YVVIAILTV
6.60

====

Assayed System: HLA-A*30:01
Protocol: IEDB peptide-MHC binding, purified MHC/competitive/radioactivity; filed as Kd, often an IC50 or EC50 that approximates it; bounds were set here for any values at or beyond the usual limits of such assays
Condition Context: source organism: Dengue virus 3 Sri Lanka/1266/2000
Attribute Measured: Kd

Answer briefly: Kd recorded on HLA-A*30:01 for GIFPYSIPAT
≥ 70.4 µM

====

Assayed System: HLA-A*11:01
Protocol: IEDB peptide-MHC binding, purified MHC/competitive/radioactivity; filed as Kd, often an IC50 or EC50 that approximates it; bounds were set here for any values at or beyond the usual limits of such assays
Condition Context: source organism: Mammarenavirus juninense
Attribute Measured: Kd
Dear colleague, please send the value followed by its unit.

Report Kd, nothing else, for this sequence: TGINENYAK
1530 nM

====

Assayed System: HLA-B*15:01
Protocol: IEDB peptide-MHC binding, purified MHC/competitive/fluorescence; filed as Kd, often an IC50 or EC50 that approximates it; bounds were set here for any values at or beyond the usual limits of such assays
Condition Context: source organism: Listeria monocytogenes serotype 4b str. H7858
Attribute Measured: Kd

Report Kd, nothing else, for this sequence: ITWPRTRHW
≥ 20 µM

====

Assayed System: HLA-A*03:01
Protocol: IEDB peptide-MHC binding, purified MHC/competitive/fluorescence; bounds were set here for any values at or beyond the usual limits of such assays
Condition Context: source organism: Sudan ebolavirus
pIC50: −log10 of the molar value.
Attribute Measured: pIC50

Report pIC50, nothing else, for this sequence: MQISTIGIR
≤ 3.84

====

Assayed System: HLA-A*03:01
Protocol: IEDB peptide-MHC binding, purified MHC/competitive/radioactivity; filed as Kd, often an IC50 or EC50 that approximates it; bounds were set here for any values at or beyond the usual limits of such assays
Condition Context: source organism: Dengue virus 2 Jamaica/1409/1983
# maps each entry to its pKd
Worth noting: pKd values are minus log10 of concentrations stated in mol/L.

Reference set, count: 3
AMAFHLTTR: 7.25
GLTSRATWAK: 7.28
VTCAMFTCKK: 7.06

The record that follows has no pKd shown yet.
Report pKd, nothing else, for this sequence: VTFKNPHAK
8.02

====

Assayed System: HLA-B*15:01
Protocol: IEDB peptide-MHC binding, purified MHC/competitive/fluorescence; filed as Kd, often an IC50 or EC50 that approximates it; bounds were set here for any values at or beyond the usual limits of such assays
Condition Context: source organism: Escherichia coli O157:H7 str. EDL933
pKd: −log10 of the molar value.
Attribute Measured: pKd

Report pKd, nothing else, for this sequence: VLIGRRWFR
≤ 4.70
